tested on: MOLT-4 leukemia; assay: NCI tumour cell line growth inhibition, 48 h
readout-name: TGI (µM)
Express it in µM; write the number only.

Input: # return recorded TGI for input `CN1CCN(CCCCN2c3ccccc3Sc3ccc(C(=O)c4ccccc4)cc32)CC1`
Output: 3.43

Input: Provide one value: measured TGI of C[C@]12CC[C@H](OC3OC(O)C(O)C(O)C3O)C=C1CCC1C2CC[C@]2(C)[C@@H](c3ccc(=O)oc3)CC[C@]12O (stereo partly drawn)
Output: 0.0053

Input: Specify TGI for `CSc1nc(=Nc2ccccc2)sn1-c1ccccc1` and stop.
Output: 96

Input: Read off the recorded TGI for `O=C(/C=C/c1cccc([N+](=O)[O-])c1)c1cccnc1`
Output: 63.5

* * *

tested on: SK-OV-3 ovarian; experiment: NCI tumour cell line growth inhibition, 48 h; in the data active means GI50 below about 0.43 µM; inactive means the rest
Please answer using one outcome listed in Yes (active), No (inactive)

Input: Please state the recorded outcome for this compound: `ClC1=C(Cl)C(Cl)=C(Cl)C1=Cc1ccccc1`
Output: No

Input: For `CCC[CH2][Sn]([CH2]CCC)([O]C(=O)c1ccc(C)c(N)c1)[O]C(=O)c1ccc(C)c(N)c1` , which call appears in the assay record?
Output: No

Input: What did the test return for `COc1cc2c(cc1OCCCCCN1CCN(c3cc(=O)oc4ccccc34)CC1)N=C[C@@H]1CCCN1C2=O` ?
Output: No

Input: Test call for this compound, please: `Cc1ccc(C)c(COc2cc(NC(=O)c3ccc4c(c3)OCO4)ccc2N(C)S(C)(=O)=O)c1`
Output: Yes

Input: What is the recorded call for this compound in the test? `CC/C=C\C/C=C\C[C@H]1C/C=C2/C(=O)C=C[C@@H]2C/C=C\CCC(=O)O1`
Output: No

* * *

system: UO-31 renal; assay: NCI tumour cell line growth inhibition, 48 h
Provide the reported TGI of each item.

Input: Identify TGI associated with the compound `CC(C)(C)OC(=O)NCCCCCCC(=O)Cc1ccccc1`
Output: > 100 µM

Input: Identify TGI associated with the compound CCCCOC(=O)NC(c1ccccc1)C(O)C(=O)OC1C[C@@]2(O)C(OC(=O)c3ccccc3)C3[C@](C)(C(=O)[C@H](OC(C)=O)C(=C1C)C2(C)C)[C@@H](O)C[C@H]1OC[C@@]31OC(C)=O (stereo partly specified)
Output: > 10 µM

Input: Identify the reported TGI for the following entry. `O=[N+]([O-])c1nccn1COCCI`
Output: > 100 µM

Input: Tell us which TGI value is on record for `CC/C=C\C/C=C\C[C@H]1C/C=C2/C(=O)C=C[C@@H]2C/C=C\CCC(=O)O1`
Output: 4.94 µM

Input: Provide only the value of recorded TGI for `O=C1OC(c2ccccc2)=N/C1=C\c1ccc(F)cc1`
Output: > 100 µM

Input: Give TGI for `ClC1=C(Cl)C(Cl)=C(Cl)C1=Cc1ccccc1`
Output: 1.98 µM

* * *

system: HT29 colon; test: NCI tumour cell line growth inhibition, 48 h
readout-name: TGI

Input: State its TGI: C=CCCC1CCCCC/C1=N\N(C)C (centres undefined)
Output: > 100 µM

Input: Please give measured TGI of the following entry: COc1cccc(CC(C)N)c1 (centres undefined)
Output: > 100 µM

Input: Quote TGI reported for `Cn1cc(C2=C(c3c4n(c5ccccc35)CCN(C(N)=S)C4)C(=O)NC2=O)c2ccccc21` please.
Output: > 25 µM

Input: Name the recorded TGI of the item `Nc1nc(-c2ccccc2)cc(-c2ccccc2O)n1` in your answer.
Output: > 100 µM
